Field: abundance fitness. Provide a value for each of the variants that follow.
B1: Nuclear receptor subfamily 1 group D member 2, residues 103 to 171; numbered along this chain, Q14995 (parent)
chain: CKVCGDVASGFHYGVHACEGCKGFFRRSIQQNIQYKKCLKNENCSIMRMNRNRCQQCRFKKCLSVGMSR

# Variants of: B1
# assay-method-text: abundance fitness (aPCA) (normalised: wild type 0, dead -1); higher = more abundant; growth selection in yeast, the domain comes from the species named
# condition-info: Homo sapiens
Answers are plain numbers.

> print(dat)
                                biosequence  reading
1  CKVCGDVASGFHYGVHACEGCKGFFRRSIQQNIQYKKCLKNENCSIMRMNRNRCQQCRFKKCLSVGMNR [S68N]    0.186
2  CKVCGDVASGFHYGVHACEGCKGFFRRSIQENIQYKKCLKNENCSIMRMNRNRCQQCRFKKCLSVGMSR [Q31E]    0.197
3  CKVCGDVASGFHYGVHACEGCKGFFRESIQQNIQYKKCLKNENCSIMRMNRNRCQQCRFKKCLSVGMSR [R27E]    0.216
4  CKVCGDVASGFHYGVHACEGCKGFFRRSIQQNIQYKKCLLNENCSIMRMNRNRCQQCRFKKCLSVGMSR [K40L]   -0.042

Count: 8. Required value per item: abundance fitness.
1. CKVCGDVASGFHYGVHACEGCKGFFRRSIQQNIQYKKCLKNENCSIMRMNRNRCQQCRFKKCLSVGVSR [M67V]
2. CKVCGDVASGFHYGVHACEGCKGFFRRSIQQNIQYKKCLKNENCSISRMNRNRCQQCRFKKCLSVGMSR [M47S]
3. CKVCGDVASGFHYGVHACEGCKGFFRRSIQQNIQYKKCLKNENCSIMRMNRNHCQQCRFKKCLSVGMSR [R53H]
4. CKVCGDVASGFHYGVHACEGCKGFFRRSIQQNIQYKKCLKNENCRIMRMNRNRCQQCRFKKCLSVGMSR [S45R]
5. CKVCGDVASGFHYGVHACEGCKGFFRRSIQQNIQYKQCLKNENCSIMRMNRNRCQQCRFKKCLSVGMSR [K37Q]
6. CKVCGDVASGFHYGVHACEGCKGFFRRSIQQNIQYKKCLKNENCSIMRMNRNMCQQCRFKKCLSVGMSR [R53M]
7. CKVCGDVASGFHYGVHACEGCKGFFRRSIQQNIQYKKCLKNENCSIMRMIRNRCQQCRFKKCLSVGMSR [N50I]
8. CKVCGDVASGFHYGVHACEGCKGFFRRSIQQNMQYKKCLKNENCSIMRMNRNRCQQCRFKKCLSVGMSR [I33M]

1. -0.794
2. 0.184
3. 0.029
4. -0.259
5. -0.075
6. 0.098
7. -0.415
8. -0.35

Count: 4. Required value per item: abundance fitness.
1. CKVCGDVASGFHYGVHACEGCKGFFRKSIQQNIQYKKCLKNENCSIMRMNRNRCQQCRFKKCLSVGMSR [R27K]
2. CKVCGDVASGFHYGVHACEGCKGFFRRSIQQNIQYKKCLKNENCSIMRMNRNRCQQCRFKKCRSVGMSR [L63R]
3. CKVCGDVASGFHYGVHACEGCKGFFRRSIQQNIQYKKCLKNENCSIMRMNRNRCQQCRFKPCLSVGMSR [K61P]
4. CKVCGDVASGFHYGVHACEGCKGFFRRSIQQNIQYKKVLKNENCSIMRMNRNRCQQCRFKKCLSVGMSR [C38V]

1: -0.275; 2: -0.991; 3: -0.905; 4: -0.551
